# Target entity: DD(E) fragment of fibrin
# Test: affinity to DD(E) fragment of fibrin
pKd: −log10 of the molar value. Starred links: 1 amine or outer side, 2 acyl side, 3 side chain; linkers in the order of their positions; H or OH if unused. Positions of bridges follow the written chain, without caps; N, C: chain ends. Non-standard residues stand in square brackets, D forms with d. Primed or numbered codes have the meaning given here. No end group written: not given here. Phe(4-OMe) = COc1ccc(C[C@H](N[*:1])C(=O)[*:2])cc1; Phe(F5) = N[C@@H](Cc1c(F)c(F)c(F)c(F)c1F)C(=O)O; Bpa = N[C@@H](Cc1ccc(C(=O)c2ccccc2)cc1)C(=O)O; Tyr(3-Cl) = N[C@@H](Cc1ccc(O)c(Cl)c1)C(=O)O; Tyr(3-F) = N[C@@H](Cc1ccc(O)c(F)c1)C(=O)O; Tyr(3-I) = N[C@@H](Cc1ccc(O)c(I)c1)C(=O)O; Phe(4-Br) = N[C@@H](Cc1ccc(Br)cc1)C(=O)O; Hyp = O=C(O)[C@@H]1C[C@@H](O)CN1; 2Pal = N[C@@H](Cc1ccccn1)C(=O)O; 4Pal = N[C@@H](Cc1ccncc1)C(=O)O; Phe(4-Et)′ = not defined here; Dht = not defined here
Reported pKd values for the following binders.

The cases that follow already have their pKd on record.
Binder	pKd
FHC[Hyp][Tyr(3-I)]DLC[2Pal]I (disulfide 3-8 (inferred)) [F-H-C-Hyp-Y(3-I)-D-L-C-2Pal-I]	> 6.30
YEC[Hyp][Tyr(3-Cl)]GLCWIQ (disulfide 3-8 (inferred)) [Y-E-C-Hyp-Y(3-Cl)-G-L-C-W-I-Q]	> 6.52
FHC[Hyp][Tyr(3-I)]DLCH[Bpa] (disulfide 3-8 (inferred)) [F-H-C-Hyp-Y(3-I)-D-L-C-H-Bpa]	> 7.00
FHC[Hyp][Tyr(3-I)]DLC[4Pal]I (disulfide 3-8 (inferred)) [F-H-C-Hyp-Y(3-I)-D-L-C-4Pal-I]	> 6.70
[Phe(4-Br)]HC[Hyp][Tyr(3-I)]DLCHI (disulfide 3-8 (inferred)) [F(4-Br)-H-C-Hyp-Y(3-I)-D-L-C-H-I]	> 7.00
FHC[Hyp][Tyr(3-I)]DLCH[Phe(4-Et)′] (disulfide 3-8 (inferred)) [F-H-C-Hyp-Y(3-I)-D-L-C-H-F(4-Et)]	> 7.00
FHC[Hyp][Tyr(3-I)]DLC[Dht]I (disulfide 3-8 (inferred); reading uncertain; also: printed as F-H-C-Hyp-Y(3-I)-D-L-C-Dht-I) [F-H-C-Hyp-Y(3-I)-D-L-C-Dht-I]	> 6.30
FHC[Hyp][Tyr(3-F)]DLCHIL (disulfide 3-8 (inferred)) [F-H-C-Hyp-Y(3-F)-D-L-C-H-I-L]	> 7.00
[Phe(F5)]HC[Hyp][Tyr(3-I)]DLCHI (disulfide 3-8 (inferred)) [F(F5)-H-C-Hyp-Y(3-I)-D-L-C-H-I]	> 7.00
[Phe(4-OMe)][His(Bzl)]C[Hyp][Tyr(3-I)]DLCH[Bpa] (disulfide 3-8 (inferred)) [F(4-OMe)-H(Bzl)-C-Hyp-Y(3-I)-D-L-C-H-Bpa]	> 7.00

From here, focus on the item given below.
[Phe(4-OMe)][His(Bzl)]C[Hyp][Tyr(3-Cl)]DLCH[Bpa] (disulfide 3-8 (inferred)) [F(4-OMe)-H(Bzl)-C-Hyp-Y(3-Cl)-D-L-C-H-Bpa] has a reported pKd of > 7.00
